Reported log10(IC50) is given for each of the following compounds.
Biological target: NK1 receptors (Homo sapiens, UniProt P25103)
Sequence (P25103 whole entry): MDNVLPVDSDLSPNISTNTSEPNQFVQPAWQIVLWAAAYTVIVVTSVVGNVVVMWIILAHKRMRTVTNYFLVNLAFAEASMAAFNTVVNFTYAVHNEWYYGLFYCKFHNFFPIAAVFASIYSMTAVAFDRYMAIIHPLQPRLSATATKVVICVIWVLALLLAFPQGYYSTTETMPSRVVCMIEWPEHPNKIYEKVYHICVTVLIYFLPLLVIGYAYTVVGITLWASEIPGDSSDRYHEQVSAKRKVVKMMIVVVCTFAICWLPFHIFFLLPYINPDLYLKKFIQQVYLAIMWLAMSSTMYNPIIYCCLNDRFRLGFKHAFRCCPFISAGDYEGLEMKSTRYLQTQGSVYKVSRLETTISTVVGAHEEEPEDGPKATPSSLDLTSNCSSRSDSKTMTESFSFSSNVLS
Assay: Binding of [4,5-3H-Leu10] substance P to human recombinant NK1 receptors expressed in CHO cell membranes
Conditions: pIC50 = -log IC50, concentration inhibiting by 50% the specific binding of [4,5-3H] substance P; tested as the free base/salt given in c1
Note the log scale: values are log10 of IC50 expressed in µM.

See these solved cases before continuing.
{"columns": ["compound", "log10(IC50)"],
 "data": [
  ["CC(C)OC(=O)CCCCCN1CCN(C(COCc2cc(C(F)(F)F)cc(C(F)(F)F)c2)c2ccccc2)CC1 (racemic)", -2.10],
  ["N#CCN1CCN([C@H](COCc2cc(C(F)(F)F)cc(C(F)(F)F)c2)c2ccccc2)CC1", -1.60],
  ["O=C(O)COCCN1CCN(C(COCc2cc(C(F)(F)F)cc(C(F)(F)F)c2)c2ccccc2)CC1 (racemic)", -1.20]
]}

*Q* Return reported log10(IC50); argument: FC(F)(F)c1cc(COC[C@H](c2ccccc2)N2CCN(CCCCc3nnn[nH]3)CC2)cc(C(F)(F)F)c1
*A* -1.80

*Q* I would be grateful if you could share the reported log10(IC50) for CC(C)COC(=O)COCCN1CCN(C(COCc2cc(C(F)(F)F)cc(C(F)(F)F)c2)c2ccccc2)CC1 (stereo not drawn) .
*A* -1.50

*Q* Can you share its log10(IC50)? I mean this compound: N#CCOCCN1CCN(C(COCc2cc(C(F)(F)F)cc(C(F)(F)F)c2)c2ccccc2)CC1 (racemic)
*A* -1.80

*Q* Dear colleague, I am looking for the recorded log10(IC50) of the following compound: O=C(O)C(c1ccccc1)N1CCN([C@H](COCc2cc(C(F)(F)F)cc(C(F)(F)F)c2)c2ccccc2)CC1 (mixture of isomers)
*A* -1.40

*Q* What value of log10(IC50) has been recorded for this entry: COc1cc(CN2CCN([C@H](COCc3cc(C(F)(F)F)cc(C(F)(F)F)c3)c3ccccc3)CC2)cc(OC)c1OC
*A* -1.60

*Q* Item under review: COC(=O)CCCCN1CCN(C(COCc2cc(C(F)(F)F)cc(C(F)(F)F)c2)c2ccccc2)CC1 (racemic) . Reported log10(IC50)?
*A* -2.20

*Q* log10(IC50) lookup needed for FC(F)(F)c1cc(COCC(c2ccccc2)N2CCN(CCOCc3nnn[nH]3)CC2)cc(C(F)(F)F)c1 (stereo not drawn) , thanks.
*A* -1.50
